Target: KCNQ2/3 channels (Homo sapiens, UniProt O43525+O43526)
Construct: expressed in transfected cells; host or cells: CHO-K1
Experiment: Fluorescence assay using a voltage-sensitive dye
Assay type: cell-based
Conditions: 10 μmol test substance; CHO-K1 cells expressing KCNQ2/3 channels; agonistic activity; read-out: % Stimulation [10 μmol] Average
Tag: met if measured activation at 10 µM is not below 20%, not met if it is.

compound="Cc1cc(C2CCc3nc(C(=O)NC(C)CCc4ccccc4)cn3C2)ccc1F (centres unmarked)" cat=met
compound="O=C(c1cn2c(n1)CCC(c1ccccc1)C2)N1CCC(Cc2ccccc2)CC1 (centres unmarked)" cat="not met"
compound="CC1(C)CC2CC(C)(CN2C(=O)c2cn3c(n2)CCC(c2cccc(F)c2)C3)C1 (centres unmarked)" cat=met
compound="Cc1cc(C2CCc3nc(C(=O)N(C)C(C)CCc4cccc(C(F)(F)F)c4)cn3C2)ccc1F (centres unmarked)" cat=met
compound="COc1ccc(F)cc1C1CCc2nc(C(=O)N3CCN(c4cccc(C(F)(F)F)c4)CC3)cn2C1 (centres unmarked)" cat=met

Then this compound:
Tell me whether activation at 10 µM is at least 20% here: O=C(c1cn2c(n1)CCC(c1cccc(C(F)(F)F)c1)C2)N1CCCC1 (centres unmarked) not met

====

Molecular target: KCNQ2/3 channels (Homo sapiens, UniProt O43525+O43526)
Construct: expressed in transfected cells; host or cells: CHO-K1
Experiment: Fluorescence assay using a voltage-sensitive dye
Format: cell-based
Conditions: 10 μmol test substance; CHO-K1 cells expressing KCNQ2/3 channels; agonistic activity; read-out: % Stimulation [10 μmol] Average
reported.property: activation at 10 µM (%)
Write the answer as a number in %, unit excluded.

Worked set:
compound="Cc1cc(C2CCc3nc(C(=O)N4CCN(c5ccc(F)cc5)CC4)cn3C2)ccc1F (stereo not drawn)" readout_unit=% readout_value=96.7
compound="CC1(C)CC2CC(C)(CN2C(=O)c2cn3c(n2)CCC(c2ccc(F)cc2)C3)C1 (stereo not drawn)" readout_unit=% readout_value=25.9
compound="Cc1cccc(N2CCN(C(=O)c3cn4c(n3)CCC(c3ccc(F)c(C)c3)C4)CC2)c1 (stereo not drawn)" readout_unit=% readout_value=132

Entry COc1ccc(C2CCc3nc(C(=O)N4CCC(Cc5ccccc5)CC4)cn3C2)cc1 (stereo not drawn) , activation at 10 µM reported as 65.1

Entry O=C(c1cn2c(n1)CCC(c1cccc(F)c1)C2)N1CCN(c2cccc(C(F)(F)F)c2)CC1 (stereo not drawn) , activation at 10 µM reported as 33

Entry Cc1cc(C2CCc3nc(C(=O)NCC4CCCCC4)cn3C2)ccc1F (stereo not drawn) , activation at 10 µM reported as 25.1

Entry O=C(c1cn2c(n1)CCC(c1ccc(F)cc1)C2)N1CCN(c2cccc(C(F)(F)F)c2)CC1 (stereo not drawn) , activation at 10 µM reported as 63.5

Entry CCOC(=O)C1CCCN(C(=O)c2cn3c(n2)CCC(c2ccc(Oc4ccccc4)cc2)C3)C1 (stereo not drawn) , activation at 10 µM reported as 18

Entry O=C(c1cn2c(n1)CCC(c1ccc(F)c(F)c1)C2)N1CCN(c2cccc(C(F)(F)F)c2)CC1 (stereo not drawn) , activation at 10 µM reported as 125

Entry Cc1cc(C2CCc3nc(C(=O)N4CCN(c5ccc(C(F)(F)F)cc5)CC4)cn3C2)ccc1F (stereo not drawn) , activation at 10 µM reported as 40.8

Entry O=C(c1cn2c(n1)CCC(c1ccc(OCc3ccccc3)cc1)C2)N1CCN(c2cccc(C(F)(F)F)c2)CC1 (stereo not drawn) , activation at 10 µM reported as 32.7
